# ASSAYED_SYSTEM: M-phase inducer phosphatase 1 (Homo sapiens)
# Sequence (P30304 whole entry): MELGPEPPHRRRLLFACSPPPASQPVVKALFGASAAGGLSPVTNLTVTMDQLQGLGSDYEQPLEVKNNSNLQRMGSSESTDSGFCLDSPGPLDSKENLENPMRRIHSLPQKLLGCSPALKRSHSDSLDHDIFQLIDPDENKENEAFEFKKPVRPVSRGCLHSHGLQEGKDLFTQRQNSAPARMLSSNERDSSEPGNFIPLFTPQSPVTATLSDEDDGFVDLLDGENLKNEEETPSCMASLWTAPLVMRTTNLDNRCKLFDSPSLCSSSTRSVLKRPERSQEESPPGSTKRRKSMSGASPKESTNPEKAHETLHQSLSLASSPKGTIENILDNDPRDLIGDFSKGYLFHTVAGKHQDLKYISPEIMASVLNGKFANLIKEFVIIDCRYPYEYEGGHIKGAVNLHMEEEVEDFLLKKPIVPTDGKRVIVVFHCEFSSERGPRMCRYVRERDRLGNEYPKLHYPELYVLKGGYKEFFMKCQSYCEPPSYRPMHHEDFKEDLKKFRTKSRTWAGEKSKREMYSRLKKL
# EXPERIMENTAL_DETAILS: Inhibition of recombinant Cdc25a
MEASURED_METRIC: pIC50
Give bare numbers, as −log10 of the molar value.

COMPOUND_STRUCTURE | pIC50
O=C1/C(=C/c2cn(-c3ccccc3)nc2-c2ccc(OCc3ccc(Cl)cc3)cc2)SC(=S)N1CCS(=O)(=O)O | 5.62
O=C1/C(=C/c2cn(-c3ccccc3)nc2-c2ccc(OCc3ccccc3Cl)cc2)SC(=S)N1CCS(=O)(=O)O | 5.47

For this compound ( O=C1/C(=C/c2cn(-c3ccccc3)nc2-c2ccc(OCc3ccccc3F)cc2)SC(=S)N1CCS(=O)(=O)O ), measured pIC50 is 5.55

----------
# ASSAYED_SYSTEM: UniProtKB P08575
# Sequence (P08575 whole entry): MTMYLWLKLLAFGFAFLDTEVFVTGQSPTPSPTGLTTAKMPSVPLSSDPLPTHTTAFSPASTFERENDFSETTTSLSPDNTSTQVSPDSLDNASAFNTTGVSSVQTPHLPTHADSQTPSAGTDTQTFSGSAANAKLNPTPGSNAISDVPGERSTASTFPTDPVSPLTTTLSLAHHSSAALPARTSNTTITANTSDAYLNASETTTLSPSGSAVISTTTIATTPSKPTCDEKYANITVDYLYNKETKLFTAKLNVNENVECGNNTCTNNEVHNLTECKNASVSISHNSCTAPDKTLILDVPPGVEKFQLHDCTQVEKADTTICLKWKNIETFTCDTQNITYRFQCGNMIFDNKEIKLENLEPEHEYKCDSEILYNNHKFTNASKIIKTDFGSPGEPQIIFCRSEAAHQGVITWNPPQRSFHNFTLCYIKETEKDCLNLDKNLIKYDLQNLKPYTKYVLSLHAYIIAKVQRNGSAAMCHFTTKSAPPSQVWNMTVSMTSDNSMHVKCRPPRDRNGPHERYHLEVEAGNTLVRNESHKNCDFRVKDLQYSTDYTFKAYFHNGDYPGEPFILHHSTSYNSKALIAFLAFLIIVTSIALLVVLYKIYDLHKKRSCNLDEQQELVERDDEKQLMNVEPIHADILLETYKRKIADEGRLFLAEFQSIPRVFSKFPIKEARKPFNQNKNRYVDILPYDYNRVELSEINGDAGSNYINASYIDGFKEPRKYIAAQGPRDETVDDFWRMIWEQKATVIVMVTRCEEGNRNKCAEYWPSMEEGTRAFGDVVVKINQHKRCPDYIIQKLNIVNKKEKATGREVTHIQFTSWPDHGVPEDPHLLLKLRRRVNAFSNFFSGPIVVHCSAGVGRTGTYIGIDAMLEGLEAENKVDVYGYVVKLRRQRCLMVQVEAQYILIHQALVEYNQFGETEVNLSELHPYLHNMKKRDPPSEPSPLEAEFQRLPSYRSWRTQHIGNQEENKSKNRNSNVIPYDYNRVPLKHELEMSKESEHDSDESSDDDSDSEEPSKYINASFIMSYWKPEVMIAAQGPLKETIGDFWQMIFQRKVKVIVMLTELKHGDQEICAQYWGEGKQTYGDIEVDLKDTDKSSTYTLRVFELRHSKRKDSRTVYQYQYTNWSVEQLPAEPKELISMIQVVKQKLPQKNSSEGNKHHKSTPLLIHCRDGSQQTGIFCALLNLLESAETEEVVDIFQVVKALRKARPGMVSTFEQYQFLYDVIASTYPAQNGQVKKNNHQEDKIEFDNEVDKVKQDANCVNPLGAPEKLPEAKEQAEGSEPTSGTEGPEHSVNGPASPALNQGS
# EXPERIMENTAL_DETAILS: Inhibition of recombinant CD45
MEASURED_METRIC: pIC50
Answers are plain numbers, as −log10 of the molar value.

Consider the reported pIC50 for these compounds:
COMPOUND_STRUCTURE | OBS_VALUE
O=C1/C(=C/c2cn(-c3ccccc3)nc2-c2ccc(OCc3ccccc3F)cc2)SC(=S)N1CCS(=O)(=O)O | 6.30
O=C1/C(=C/c2cn(-c3ccccc3)nc2-c2ccc(OCc3ccccc3Cl)cc2)SC(=S)N1CCS(=O)(=O)O | 6.52

Now consider the entry below.
For this compound ( O=C1/C(=C/c2cn(-c3ccccc3)nc2-c2ccc(S(=O)(=O)N3CCCCC3)cc2)SC(=S)N1CCS(=O)(=O)O ), measured pIC50 is 5.74

----------
# Test system: HeLa
# EXPERIMENTAL_DETAILS: Antiproliferative activity against human HeLa cells at 20 uM after 24 hrs by [3H]thymidine incorporation assay relative to control
# Assay type: functional
MEASURED_METRIC: Activity

Consider the reported Activity for these molecules:
COMPOUND_STRUCTURE | Activity
O=C1/C(=C/c2cn(-c3ccccc3)nc2-c2ccc(OCc3ccccc3)cc2)SC(=S)N1CCS(=O)(=O)O | <=30%
O=C1/C(=C/c2cn(-c3ccccc3)nc2-c2ccc(OCc3ccc(Cl)cc3)cc2)SC(=S)N1CCS(=O)(=O)O | <=30%
O=C1/C(=C/c2cn(-c3ccccc3)nc2-c2ccc(OCc3ccccc3Cl)cc2)SC(=S)N1CCS(=O)(=O)O | <=30%
O=C1/C(=C/c2cn(-c3ccccc3)nc2-c2ccc(S(=O)(=O)N3CCCCC3)cc2)SC(=S)N1CCS(=O)(=O)O | <=30%

Field Activity (HeLa), entry O=C1/C(=C/c2cn(-c3ccccc3)nc2-c2ccc(OCc3ccccc3F)cc2)SC(=S)N1CCS(=O)(=O)O : 58%

----------
What Ki was measured for each of the following?
# ASSAYED_SYSTEM: Dual specificity protein phosphatase 3 (Homo sapiens)
# Sequence (P51452 whole entry): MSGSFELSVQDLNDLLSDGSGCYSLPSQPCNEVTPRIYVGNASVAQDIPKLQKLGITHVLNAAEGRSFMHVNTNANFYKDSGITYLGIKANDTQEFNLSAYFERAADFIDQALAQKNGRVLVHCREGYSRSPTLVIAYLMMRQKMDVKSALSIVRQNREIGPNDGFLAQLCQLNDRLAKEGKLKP
# EXPERIMENTAL_DETAILS: Inhibition of recombinant vaccina H1-related phosphatase expressed in Escherichia coli by Michaelis-Menten kinetic studies
Answers are plain numbers, in µM.

Consider the reported Ki for these compounds:
COMPOUND | Ki / µM
O=C1NC(=S)N(c2cccc(Cl)c2)C(=O)/C1=C\c1ccc[nH]1 (mixture of isomers) | 3.49
CCOC(=O)c1[nH]nc2c1C(=O)N(c1ccc(Br)cc1)C2=O | 2.64
Cc1cc(Br)c(-c2ccc(/C=C3\NC(=S)NC3=O)o2)cc1C | 3.19

For each listed entry, give its Ki.
1. O=C(/C=C/c1ccco1)/C=C/c1ccc(-c2ccc(Cl)c(Cl)c2)o1
2. O=C1NC(=S)N(c2ccc(F)cc2)C(=O)/C1=C/c1ccc(Br)o1
3. O=C(/C=C/c1ccc(-c2ccccc2[N+](=O)[O-])o1)Nc1ccc(-c2nc3ccccc3o2)cc1
4. O=C1/C(=C/c2ccc(-c3cccc(Cl)c3)o2)SC(=S)N1CCS(=O)(=O)O
5. O=C1NC(=O)N(c2cccc(Br)c2)C(=O)/C1=C/c1ccc(-c2ccc(C(=O)O)cc2)o1 (mixture of isomers)
6. O=C1C(Cl)=C/C(=N\S(=O)(=O)c2ccc(Cl)cc2)C(Cl)=C1Cl
7. S=C(Nc1ccc2c(c1)oc1ccccc12)Nc1cccc2ccccc12
8. O=C1NC(=S)/C(=C/c2ccc(-c3ccc([N+](=O)[O-])cc3)o2)S1

1. 15.9
2. 12.1
3. 1.76
4. 3.13
5. 16.2
6. 13.4
7. 2.94
8. 1.86

For each listed entry, give its Ki.
1. Cc1ccc(C)n1-c1ccc(C(=O)O)c(O)c1
2. COc1ccc(OC)c2c1C(=O)c1ccccc1C2=O
3. O=C1c2cccc3c4ccccc4n(c23)C(=O)C1(O)O
4. C=CCN1C(=O)/C(=C\C=C\c2ccco2)C(=O)NC1=S (mixture of isomers)
5. Cc1ccc(C)n1-c1ccc(SCC(=O)O)cc1
6. COc1ccc(N2C(=O)/C(=C/c3ccc(I)o3)C(=O)NC2=S)cc1 (mixture of isomers)

1: 12.8; 2: 3.07; 3: 13.8; 4: 15.8; 5: 2.09; 6: 4.44

Taken from ChEMBL document CHEMBL1156736.
